Quick list: protein stability index per entry.
B1: SLC6A17 (parent)
chain: KAVEEELDAEDRPAWNSKLQYILA

- Variants of: B1
- METHOD NOTES: protein stability index of a GFP-peptide fusion (GPS, HEK-293T) (PSI 1-6); higher = more stable;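 also: lentivirally expressed fusions sorted by FACS into six bins by GFP to DsRed ratio, PSI derived from sequencing read proportions per bin multiplied by bin number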
- CONDITION LABEL: c terminus: a fixed tail appended
// no unit, no text: just the number

# MUTANT, protein stability index
measured = [
    ("A24I", 2.23),
    ("Q20H", 2.53),
    ("Q20K", 2.92),
    ("D11H", 2.59),
]

For the next question, use this variant.
Problem: Return reported protein stability index; argument: Y21Q
Result: 2.75
